assay: Total plasma pharmacokinetics of gepotidacin in healthy and E. coli infected rats; format: in vivo, rat; settings: rat, plasma, iv, 20 mg/kg, infected rats (n = 11; E. coli ATCC 13441 prostatitis), IV bolus 20 mg/kg, read-out: CLt,plasma
experimental endpoint: clearance (mL/min/kg)
Answers are plain numbers, in mL/min/kg.

Task item: Specify measured clearance for O=c1ccc2ncc(=O)n3c2n1C[C@H]3CN1CCC(NCc2cc3c(cn2)OCCC3)CC1 [gepotidacin] .
Reply: 45.6

###

Experiment: In vivo microdialysis of unbound gepotidacin in blood, muscle and prostate of healthy and E. coli infected rats
Set-up: species or system rat
Conditions: rat, prostate, iv, 20 mg/kg, infected rats (n = 11; E. coli ATCC 13441 prostatitis), unbound, IV bolus 20 mg/kg; read-out: AUCu prostate/blood
Description: The example herein describes microdialysis experiments in E. coli infected rats to measure tissue distribution of unbound gepotidacin. In vivo microdialysis experiments simultaneously determined unbound gepotidacin concentrations in rat prostate, muscle, and blood. […] Pharmacokinetic (PK) parameters were determined in each individual rat by a noncompartmental approach according to standard procedures and with the software Phoenix WinNonLin 7. […]
experimental endpoint: Kp uu
One number for each entry.

Task item: Input O=c1ccc2ncc(=O)n3c2n1C[C@H]3CN1CCC(NCc2cc3c(cn2)OCCC3)CC1 [gepotidacin] , output reported Kp uu.
Reply: 0.78
